B1: tRNA (parent)
chain: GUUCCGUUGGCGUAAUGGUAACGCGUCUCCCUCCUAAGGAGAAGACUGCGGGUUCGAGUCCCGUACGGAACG

- Variants of: B1
- experiment notes: yeast fitness relative to wild type (ratio to wild type); higher = fitter; tRNA-Arg(CCU), competitive growth, 37 C, YPD
This sample holds only a part of the variants without activity.
Below, each entry is listed alongside its reported yeast fitness.

A42C; 0.967
A45C U54G; 0.605
U8A A15U C29U; ≤ 0.5
A21G C22U C46U G56C; ≤ 0.5
C24G U26A A65C; ≤ 0.5

Consider the record given below.
Qu. Record request: yeast fitness value, item U7G C24A C27A
Ans. ≤ 0.5
